EXPERIMENTAL SYSTEM: MRGPRX2-MUT (MRGPRX2 N62S mutation) (Homo sapiens, UniProt Q96LB1, N62S)
Construct: expressed in transfected cells
Sequence (Q96LB1 whole entry N62S): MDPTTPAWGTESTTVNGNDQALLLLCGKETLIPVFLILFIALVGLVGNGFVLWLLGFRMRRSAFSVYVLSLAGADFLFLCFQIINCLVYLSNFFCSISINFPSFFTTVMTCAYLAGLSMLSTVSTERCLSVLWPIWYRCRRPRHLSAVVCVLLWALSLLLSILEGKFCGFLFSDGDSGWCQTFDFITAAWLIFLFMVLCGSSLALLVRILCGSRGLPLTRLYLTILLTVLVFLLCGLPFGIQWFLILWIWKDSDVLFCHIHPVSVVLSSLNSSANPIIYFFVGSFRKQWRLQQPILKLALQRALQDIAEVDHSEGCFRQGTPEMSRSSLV
ASSAY COMMENT: Primary HTS, Ca2+ mobilization (fluorescence ratio, B-score) in HEK293-Gα15 cells stably expressing the MRGPRX2 N62S mutation
Type: cell-based
CONDITION NOTES: MRGPRX2-MUT versus MRGPRX2-WT cells, 10 μM, Supplementary Table 2
Counter-ions that a name gives are not always drawn.
Attribute: Change of B-scores (%)
Write the value in % as a bare number.

# example entries with known answers
CNCCC=C1c2ccccc2CCc2ccccc21 [Nortriptyline Hydrochloride] = -82.96
COc1cccc2c1C(=O)c1c(O)c3c(c(O)c1C2=O)C[C@@](O)(C(C)=O)C[C@@H]3O[C@H]1C[C@H](N)[C@H](O)[C@H](C)O1 [Daunorubicin] = 319.41

Input line: Could you please provide reported Change of B-scores (%) for CCn1cc(C(=O)O)c(=O)c2cc(F)c(N3CCN(C)CC3)cc21.CS(=O)(=O)O [Pefloxacine Mesylate] ? Thanks!
Output line: -110.02

Input line: Could you please provide reported Change of B-scores (%) for `CC(C)(C)NC[C@H](O)c1ccc(O)c(CO)c1` ? Thanks!
Output line: -86.62
